property: melting point

{"compound": "OC1Cc2ccccc2C1NC1=NCCO1 (centres unmarked) [1.014]", "endpoint-result": "140 to 142 °C"}
{"compound": "c1ccc(C2CC(NC3=NCCO3)c3ccccc32)cc1 (centres unmarked)", "endpoint-result": "> 120 °C (dec.)"}
{"compound": "COc1cc2c(cc1OC)C(NC1=NCCO1)CC2 (centres unmarked)", "endpoint-result": "109 to 113 °C"}
{"compound": "COc1ccc2c(c1)CCC2NC1=NCCO1 (centres unmarked)", "endpoint-result": "115 to 118 °C"}
{"compound": "OC1Cc2ccccc2C1NC1=NCCO1 (centres unmarked) [1.013]", "endpoint-result": "139 to 141 °C"}
